Assay: Inhibition Assay: The specific assay conditions were as follows. Buffer: pH=7.5, 100 mM Tris-HCl, 75 mM NaCl, 2.5 mM CaCl2, 10 mM cysteine, 1% DMSO after all additions. Protein: 0.1 nM Kgp, isolated from culture of Porphyromonas gingivalis, as described in Pike et al. J. Biol. Chem. 1994, 269(1), 406, and Potempa and Nguyen. Current Protocols in Protein Scienc. 2007, 21.20.1-21.20.27. Fluorogenic substrate: 10 uM Z-His-Glu-Lys-MCA. Time=90 minutes. Temperature=37° C. Each compound: 10 concentrations, starting at either 100 uM or 100 nM, with lower concentrations generated by serial 3-fold dilutions. By testing a range of concentrations for each compound, the concentration required to inhibit the activity of lysine gingipain by 50% (the “IC50”) was determined. Under the described assay conditions, signal-to-noise was excellent, and Z factor was greater than 0.6.
ENDPOINT NAME: IC50

Quick check: IC50 of NCCCC[C@H](NC(=O)C1CCCC1)C(=O)COc1c(F)c(F)cc(F)c1F ? < 1 nM
